Data origin: PubChem BioAssay AID1986

# Assay Overview: inhibitors of HIV fusion peptide binding, primary screen, biochemical, uHTS, fluorescence dequenching (AID 1986)
# Experimental Parameters: cell-free peptide binding, 30 min, at 20 µM
The whole screen tested about 290,000 compounds, of which about 890 (0.31%) were called active. Rule as the data show it: active = inhibition mostly above about 52% (no sharp cut-off); inactive = mostly below about 76%. The sample holds actives, similar compounds and a random draw of the others, so the mix is not that of the screen.
Give one outcome, nothing more. List: active, inactive

IN: Check the results log: what was the call for O=C(CN1CCN(c2ccccc2)CC1)N1CCc2[nH]c3ccccc3c2C1 ?
OUT: inactive

---

# Assay Overview: inhibitors of HIV fusion peptide binding, primary screen, biochemical, uHTS, fluorescence dequenching (AID 1986)
# Experimental Parameters: cell-free peptide binding, 30 min, at 20 µM, stronger effect = higher value
The whole screen tested about 290,000 compounds, of which about 890 (0.31%) were called active. Many of the other results were omitted from the sample, so actives are more common in it than they were.
Experimental Readout: inhibition (%)
Just the number please, in %, no unit attached.

Example results:
Compound	inhibition [%]
Cc1ccccc1-n1ncc2c1CC(C)(C)CC2NC(=O)CCCN1CCCC1=O (stereo unspecified)	0.2
COC(=O)c1nn(-c2ccc(OC)cc2)ccc1=O	-2.9
O=C1O/C(=C/C(=O)N2CCOCC2)c2ccccc21	1.9
COc1ccccc1OCCCCOc1ccccc1C(C)=O	0.9
S=C(NCc1ccccn1)Nc1ccccc1Cl	1.2

GET /value?item= O=C(NCC1CCCO1)c1ccc(CNS(=O)(=O)c2cccc(Cl)c2)cc1 (stereo unspecified) &field=inhibition returns -0.3

GET /value?item= COc1cc(C2CC(=O)Nc3c2c(=O)nc2c(C)cccn32)cc(OC)c1OC (stereo unspecified) &field=inhibition returns 0

GET /value?item= CCOc1ccc(C(=O)NC(=S)Nc2ccccn2)cc1[N+](=O)[O-] &field=inhibition returns -0.9

GET /value?item= COc1ccc(/C=N\NS(=O)(=O)c2ccc(Br)cc2)cc1COc1ccccc1[N+](=O)[O-] &field=inhibition returns -1.1

GET /value?item= CC(C)(C)NC(=O)NC(=O)COC(=O)c1cccc(NS(=O)(=O)c2ccc(F)c(F)c2)c1 &field=inhibition returns 5.9

GET /value?item= O=C1c2ccsc2SCCN1Cc1c(F)cccc1Cl &field=inhibition returns -0.5
